# cytotoxicity at 10 µM per record follows
# TEST NAME: Toxicity liver stage against HepG2, at 10uM
# Assay type: cell-based
# Design: test concentration 10 uM, cell line HepG2-A16-CD81EGFP
# CONDITION NOTES: human, HepG2-A16-CD81EGFP cells; read-out: INHIBITION
VALUE KIND: cytotoxicity at 10 µM

[
  {
    "COMPOUND": "COc1ccc(C2=CCN(C(=O)C3CCC3)CC2)cc1",
    "VALUE KIND": "cytotoxicity at 10 µM",
    "REPORTED": "-13.1%"
  },
  {
    "COMPOUND": "CS(=O)(=O)N1CCCC1c1cccc(Nc2nccs2)n1 (stereo unspecified)",
    "VALUE KIND": "cytotoxicity at 10 µM",
    "REPORTED": "-33.4%"
  },
  {
    "COMPOUND": "CCC1CN(CCNC(C)=O)CCN1CCOC (stereo unspecified)",
    "VALUE KIND": "cytotoxicity at 10 µM",
    "REPORTED": "-3.09%"
  },
  {
    "COMPOUND": "O=C(c1ccc2[nH]cnc2c1)N1CCC(COc2ccccn2)CC1",
    "VALUE KIND": "cytotoxicity at 10 µM",
    "REPORTED": "-2.91%"
  },
  {
    "COMPOUND": "CCC(Nc1nc(CCN)nc2ccccc12)c1cccs1 (stereo unspecified)",
    "VALUE KIND": "cytotoxicity at 10 µM",
    "REPORTED": "-3.09%"
  },
  {
    "COMPOUND": "CN1C[C@@H](O)[C@]2(CCN(C(=O)c3ccccc3)C2)S1(=O)=O",
    "VALUE KIND": "cytotoxicity at 10 µM",
    "REPORTED": "0.148%"
  },
  {
    "COMPOUND": "COc1ccccc1[C@@H]1CN(C(=O)c2csc(C)n2)C[C@H]1C(=O)O",
    "VALUE KIND": "cytotoxicity at 10 µM",
    "REPORTED": "4.98%"
  },
  {
    "COMPOUND": "CCSCc1ccc(C(=O)N2CCCN(CC(N)=O)CC2)cc1",
    "VALUE KIND": "cytotoxicity at 10 µM",
    "REPORTED": "10.5%"
  },
  {
    "COMPOUND": "Cc1nnc(CN(C)S(=O)(=O)c2ccc(Br)cc2Cl)n1C",
    "VALUE KIND": "cytotoxicity at 10 µM",
    "REPORTED": "12.6%"
  },
  {
    "COMPOUND": "O=C(c1ccc(Cl)s1)N1CC(c2nc(-c3ccc[nH]c3=O)no2)C1",
    "VALUE KIND": "cytotoxicity at 10 µM",
    "REPORTED": "-1.26%"
  },
  {
    "COMPOUND": "CCCc1noc(CN2CCCC2c2ccsc2)n1 (stereo unspecified)",
    "VALUE KIND": "cytotoxicity at 10 µM",
    "REPORTED": "-18.8%"
  },
  {
    "COMPOUND": "COc1cc(NC(=O)c2cscn2)ncn1",
    "VALUE KIND": "cytotoxicity at 10 µM",
    "REPORTED": "3.12%"
  },
  {
    "COMPOUND": "CNCC1CCC(c2cc(CN(C)S(=O)(=O)N(C)C)n(C)n2)CC1 (stereo unspecified)",
    "VALUE KIND": "cytotoxicity at 10 µM",
    "REPORTED": "-1.33%"
  },
  {
    "COMPOUND": "CC(C)Cc1n[nH]c(C2CC(=O)N(CC(C)C)C2)n1 (stereo unspecified)",
    "VALUE KIND": "cytotoxicity at 10 µM",
    "REPORTED": "3.49%"
  },
  {
    "COMPOUND": "CC(C)OCCCNC(=O)CN(c1ccc(F)c(F)c1)S(C)(=O)=O",
    "VALUE KIND": "cytotoxicity at 10 µM",
    "REPORTED": "9.96%"
  },
  {
    "COMPOUND": "COCCn1ccc(=O)c(OCC(=O)Nc2ccc(Br)cc2)c1C",
    "VALUE KIND": "cytotoxicity at 10 µM",
    "REPORTED": "0.185%"
  },
  {
    "COMPOUND": "Cc1cnn(CC2CCCCN2C(=O)c2ccnc(N(C)C)c2)c1 (stereo unspecified)",
    "VALUE KIND": "cytotoxicity at 10 µM",
    "REPORTED": "3.3%"
  },
  {
    "COMPOUND": "CCSCCC(=O)NC1CCN(C(C)c2ccccc2)CC1 (stereo unspecified)",
    "VALUE KIND": "cytotoxicity at 10 µM",
    "REPORTED": "-1.22%"
  },
  {
    "COMPOUND": "O=c1cc(Cn2ccnc2)nc2n1CCCN(Cc1ccco1)C2",
    "VALUE KIND": "cytotoxicity at 10 µM",
    "REPORTED": "7.77%"
  },
  {
    "COMPOUND": "Cn1cc(NC(=O)Nc2ccc3c(c2)OCO3)cn1",
    "VALUE KIND": "cytotoxicity at 10 µM",
    "REPORTED": "-0.37%"
  },
  {
    "COMPOUND": "CSc1nccc(N2CCC(NCc3ccc4nsnc4c3)CC2)n1",
    "VALUE KIND": "cytotoxicity at 10 µM",
    "REPORTED": "28.3%"
  },
  {
    "COMPOUND": "CC(=O)N1CCC(c2ncc3c(n2)CCN(C(=O)c2ccccc2)C3)C1 (stereo unspecified)",
    "VALUE KIND": "cytotoxicity at 10 µM",
    "REPORTED": "-8.69%"
  },
  {
    "COMPOUND": "CN(C)C(=O)N1CC2(CCOCC2)c2cc(NS(=O)(=O)C3CC3)ccc21",
    "VALUE KIND": "cytotoxicity at 10 µM",
    "REPORTED": "-7.15%"
  },
  {
    "COMPOUND": "Cc1ccc(-n2c(SCC(=O)O)nnc2-c2cccc(C)c2)cc1",
    "VALUE KIND": "cytotoxicity at 10 µM",
    "REPORTED": "-2.05%"
  },
  {
    "COMPOUND": "COc1cccc(NC(=O)CCCc2nc(C(C)C)no2)c1",
    "VALUE KIND": "cytotoxicity at 10 µM",
    "REPORTED": "6.39%"
  },
  {
    "COMPOUND": "Cc1cnc(N2CCCC3(CCCN(C)C3)C2)nc1 (stereo unspecified)",
    "VALUE KIND": "cytotoxicity at 10 µM",
    "REPORTED": "-11.8%"
  },
  {
    "COMPOUND": "Cc1nc(NC2CC(C)(C)NC(C)(C)C2)c2c(n1)c(C)nn2C",
    "VALUE KIND": "cytotoxicity at 10 µM",
    "REPORTED": "-11.5%"
  },
  {
    "COMPOUND": "Cc1ccc(CNC(=O)CN2C=Nc3ccccc3S2(=O)=O)s1",
    "VALUE KIND": "cytotoxicity at 10 µM",
    "REPORTED": "0.347%"
  },
  {
    "COMPOUND": "CC(C)Oc1ccc(C(=O)N2CCCCC2Cn2cccn2)cn1 (stereo unspecified)",
    "VALUE KIND": "cytotoxicity at 10 µM",
    "REPORTED": "-14.9%"
  },
  {
    "COMPOUND": "CCn1cc(-n2cc3nc(N4CCCC4)[nH]cc-3c2=O)cn1",
    "VALUE KIND": "cytotoxicity at 10 µM",
    "REPORTED": "2.77%"
  },
  {
    "COMPOUND": "c1nc2c(c(-c3ccsc3)n1)CCN(Cc1ccoc1)CC2",
    "VALUE KIND": "cytotoxicity at 10 µM",
    "REPORTED": "-11.4%"
  }
]
